Tested on: MS2 coat protein
Experiment: apparent KD of MS2 coat protein; designed switch direction (-1 OFF switch, 1 ON switch): 1; higher = weaker reporter binding
Settings: Eterna round: R95; input ligand: microRNA oligo, concentration not stated
Property: apparent KD of MS2 coat protein; scope: individual sequences
Hi! Could you send only the number? It should be in µM, unit omitted.

Example entries and their recorded answers appear below.
{"sequence input": "GAGGAUGAACUACAGGAUAUAUAGCAGAUGACAUGAGGAUCACCCAUGUAAGAGAAAGGAGGGAGAUAGAAGGGUAUGGGAGGUG [JR_SS2_Sub037] (puzzle: Same State 2)", "apparent KD of MS2 coat protein (µM)": 0.0286}
{"sequence input": "AACAAUCUAUCUGAGGAUAUCAUGAAAUAAACAUGAGGAUCACCCAUGUGCAGGAAAACUGCAUAUGAGAAGGCAGAUAGAUUGU [salish99_ss2_r3_058] (puzzle: Same State 2)", "apparent KD of MS2 coat protein (µM)": 1.02}
{"sequence input": "UUUGGGUGGCUGGAGGAUAUCCUUGUGGUUACAUGAGGAUCACCCAUGUGCCGCGCGGUGCGCGAGGAGAAGGCUGGCGGCCGUU (puzzle: Same State 2)", "apparent KD of MS2 coat protein (µM)": 0.0795}
{"sequence input": "GUAAAACAUGAGGAUCACCCAUGUAAUAAUAUGGGAGGAUAUGCGAAUUUAAUUAUUUAAGCAGAAGGCCUAAAUG [Mat - Same State 1 - D99] (puzzle: Same State 1)", "apparent KD of MS2 coat protein (µM)": 0.172}

Identify measured apparent KD of MS2 coat protein corresponding to UAGAGAGGAAGCGAGGAUAUCGUGUUAGGUACAUGAGGAUCACCCAUGUUUUAAGUAGAGAUAGGCGAGAAGGCGCAGGAGAAAA [JR_SS2_Sub088] (puzzle: Same State 2) 0.0267

====

apparent KD of MS2 coat protein for assorted sequences
Test system: MS2 coat protein
Test: apparent KD of MS2 coat protein, switch OFF state (with FMN for OFF switches, without FMN for ON switches); designed switch direction (-1 OFF switch, 1 ON switch): 1; higher = weaker reporter binding
Conditions: FMN input: 0 or 200 uM; Eterna round: R93 (includes R88 designs)
Reply with just the number (in nM).

# count of solved cases: 2
{"sequence input": "GAAAAACAUGAGGAUCACCCAUGUGAUAACAUGGGAGGAUAUACAAGGACGAUAGUCAAAGUAGAAGGCCUAAAAG [Garnet 61]", "readout name": "apparent KD of MS2 coat protein", "display unit": "nM", "observed measurement": 47.9}
{"sequence input": "GCAAAACAUGAGGAUCACCCAUGUGAAAAGAAUGUAGGAUAUGGGCUCAGAAAUAGCAGCCCAGAAGGGCGAAGAA [Xequamara]", "readout name": "apparent KD of MS2 coat protein", "display unit": "nM", "observed measurement": 24.8}

Tell us which apparent KD of MS2 coat protein value is on record for UGAAGACAUGAGGAUCACCCAUGUGGGAAUAUGGGAGGAUAUACAAAGACGAGAGUCAGAGUAGAAGGCCUAGGAG [salish99-ss1-97] 103

# return recorded apparent KD of MS2 coat protein for entry AAAAAGAACACGCAGGAUAUGCAAAGAAACACAUGAGGAUCACCCAUGUCCAAAAACCCAAAAACGCAGAAGGGCGAAAAACCCA [Default title] 28.3

Return apparent KD of MS2 coat protein for the following sequence: AAAAAACAUGAGGAUCACCCAUGUGCAAAAUUCGCAGGAUAUUCCUCAAUUAAAUGAGAGGAAGAAGGGUGUAAAA [Nob's Hobby 25 - Jieux - Same State 1] 130

Determine its reported apparent KD of MS2 coat protein: GAAGACAUAGUUCAGGAUAUAUGAAUAGUCACAUGAGGAUCACCCAUGUCCAUUUAUAUGGGCACAUAGAAGGGAGGUAGUUAUC [SameState2 Malc#25] 380

Quote apparent KD of MS2 coat protein reported for AAAAGACAUGAGGAUCACCCAUGUCAAGACAUAGGAGGAUAUGUCAUGAAAAAAGACUUGACAGAAGGCCUUUGUC [SS1 - 51] please. 17.4

Supply reported apparent KD of MS2 coat protein belonging to this sequence: AAAAAAAAAAGAGAGGAUAUCCAAAAAAAAACAUGAGGAUCACCCAUGUAAAAAAAAAAAAAAUGGGAGAAGGCUCAAAAAAAAAA [Helter Skelter 1] 54.8

Check the records and state apparent KD of MS2 coat protein for AACAAUCUAUCUGAGGAUAUCAUGUGAAAGACAUGAGGAUCACCCAUGUUGCAGGAAACUGCUCAUGAGAAGGCAGAUAGAUUGA [SS2: 1126] 28.3

Report apparent KD of MS2 coat protein for CGGCUACAUGAGGAUCACCCAUGUCAGCCGAGGGCAGGAUAUGUGGUUCAUUCUCAAGCAACAGAAGGGUCAAAAG [Istiacedi] 18.7

Answer with the recorded apparent KD of MS2 coat protein of AAGAAACAUGAGGAUCACCCAUGUAGAAAUAUGGGAGGAUAUACAAAGACGAAAGUCAAAGUAGAAGGCCUGAAAG [Mat - Same State 1 - Eli mod - 84] only. 72.4

Give the measured apparent KD of MS2 coat protein for AACAAUCUAUCUGAGGAUAUCAUGUCAAAGACAUGAGGAUCACCCAUGUGUAGGAAAACUACAUAUGAGAAGGCAGAUAGAUUGA [SS2 :P - 598] 103

Give me measured apparent KD of MS2 coat protein, please, for this sequence: CGAAAGGAGAGAGAGGAUAUCCAAAGGAAAACAUGAGGAUCACCCAUGUAGAAGGUAGGAGAUUGGGAGAAGGCUCAAGAGAGAC [salish99-ss2-148] 48.2

Give apparent KD of MS2 coat protein for GGGAGGAAGAGAGAGGAUAUCCAAAGGAAAACAUGAGGAUCACCCAUGUAAAAGGUAGGAAAUUGGGAGAAGGCUCAAAAGAUGG [salish99-ss2-046] 22.3

For the sequence CGGAGACAUGAGGAUCACCCAUGUGAGAAGAGGCGAGGAUAUUGAAAGAAAGAAGAGAAAUGAGAAGGCGCGAGCC [salish99-SS1-083] , give its reported apparent KD of MS2 coat protein. 38.1
